These data points were gathered from PubChem BioAssay (NCI).

system: M19-MEL melanoma; assay: NCI tumour cell line growth inhibition, 48 h
Item-by-item account of TGI

Consider the worked cases shown below.
CCOC(=N)CC(=O)Nc1cccc(Cl)c1 : > 100 µM
O=S1(=O)CS(=O)(=O)OCCO1 : 126 µM
COC(=O)C1C=NNC1C(=O)OC (stereo not drawn) : > 100 µM
Cc1cc(=O)[nH]c(NNC(C#N)c2c(O)ccc3ccccc23)n1 (stereo not drawn) : 25 µM
C/C(=N\N=C(\[Se])N(C)C)c1ccccn1 : 5.02 µM
CC1(C)C=N[N+]2(C)C3C=CC(CC3)C12 (stereo not drawn) : > 100 µM
CC12CO[C@@](C)(CC(S(=O)(=O)c3ccccc3)C1)O2 (stereo partly drawn) : > 100 µM

Let us move to another entry and its TGI.
# TGI (compound: CCN(CC)C(=O)N1CCN(C=S)CC1 ) is > 100 µM
